Test system: DENV-1
Experiment: Plaque assay in Huh-7 cells, DENV-1
Format: cell-based
Details: Dengue virus, DENV1, Huh-7, 48 h, read-out: EC50, infectious virus titre DENV 1
measurement label: pEC50
Schema: pEC50 number; meaning minus log10 of the concentration expressed in molar units.

[ask] Give the reported value of pEC50 for this record: CC1=C(/C=C/C(C)=C/C=C/C(C)=C/C(=O)Nc2ccc(O)cc2)C(C)(C)CCC1 [4-HPR, N-(4-hydroxyphenyl) retinamide]
[reply] 5.59

###

Test system: DENV-4
Test: Cell-based flavivirus immunodetection assay in BHK-21 cells, DENV-4
Conditions: Dengue virus, DENV4, BHK-21, 48 h, read-out: EC50, DENV-4 replication
measurement label: EC50 (nM)
Reply numerically in nM, unit not repeated.

[ask] State, in one line, measured EC50 of CC1=C(/C=C/C(C)=C/C=C/C(C)=C/C(=O)Nc2ccc(O)cc2)C(C)(C)CCC1 [4-HPR, N-(4-hydroxyphenyl) retinamide]
[reply] 840
